Biological target: T1, Mcl-1, Q07820
T1 chain: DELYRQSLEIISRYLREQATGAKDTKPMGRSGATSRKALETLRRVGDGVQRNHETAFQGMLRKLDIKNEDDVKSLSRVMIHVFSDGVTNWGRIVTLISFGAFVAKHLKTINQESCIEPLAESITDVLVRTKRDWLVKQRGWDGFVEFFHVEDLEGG
Assay: peptide SPOT array, c-Myc-tagged receptor at 1 uM or 100 nM, anti-c-Myc-Cy3
attribute_measured: SPOT signal as a fraction of Bim BH3's signal on the same receptor and array

Below, each entry is followed by its recorded SPOT signal as a fraction of Bim BH3's signal on the same receptor and array result.
IGFFIAFGIAMGKMLDQAKLMVDFFN [SLC1A2] :: 0.03
DLSAVTLSRELQAMAEQLAENYHNTW [RYR1] :: 0.02

(a) EVQDRLAHKGISQAARYVYQRLINDG [DAGLB]
(b) QCPIFRLGDIDRETGDNFSDVAIQGG [P2RX7]
Problem: // compare measured SPOT signal as a fraction of Bim BH3's signal on the same receptor and array between a and b ; output the lower one Lab log: write the label of the selected item as the result.
Solution: b
